- system-name: Bifunctional protein GlmU (Mycobacterium tuberculosis (strain ATCC 25618 / H37Rv))
- experiment-notes: inhibition of mycobacterial GlmU enzyme – biochemical, glucosamine-1-phosphate acetyltransferase (AID 1376)
- assay-conditions: M. tuberculosis GlmU acetyltransferase enzyme assay;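 tested at 30 µM in the primary screen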
Among all 220,000 compounds or so, about 530 (0.24%) were called active. Cut-off read from the data, not from the text of the source: active = inhibition above about 13%; inconclusive = no clear call, values can overlap the other calls; inactive = below that. The list comes from a sample in which actives are over-represented; it also holds close analogues and randomly drawn compounds. Measured potencies and affinities stand elsewhere.
Give one outcome, nothing more. List: active, inactive

Kindly provide the recorded test outcome for the following compound: "CCn1ncc(Br)c1C(=O)Nc1ccn(C23CC4CC(CC(C4)C2)C3)n1"
inactive

Kindly provide the recorded test outcome for the following compound: "Cn1c(SCc2ccccn2)nnc1-c1cnccn1"
active

Kindly provide the recorded test outcome for the following compound: "CCC(=O)N(Cc1cc2cc(C)c(C)cc2[nH]c1=O)C1CCCCC1"
inactive

Kindly provide the recorded test outcome for the following compound: "O=C(CSCc1ccccc1F)NCc1ccc(F)cc1"
inactive

Kindly provide the recorded test outcome for the following compound: "COC(=O)c1ccccc1NC(=O)CSc1nnc(-c2cccnc2)n1C"
inactive

Kindly provide the recorded test outcome for the following compound: "Cc1ccc(-n2nc3c(c2NC(=O)c2ccc4c(c2)OCO4)CSC3)cc1"
inactive

Kindly provide the recorded test outcome for the following compound: "Cc1cccc(-n2ncc3c(N(CCO)CCO)ncnc32)c1"
inactive

Kindly provide the recorded test outcome for the following compound: "CCc1nnc2n1N=C(c1ccc([N+](=O)[O-])cc1)CS2"
inactive

Kindly provide the recorded test outcome for the following compound: "CCCCN(C)CCC(=O)Nc1ccc(F)c(F)c1"
inactive

Kindly provide the recorded test outcome for the following compound: "Cc1cc(C)n(-c2cc(N3CCN(S(=O)(=O)c4ccc(Cl)cc4)CC3)ccc2[N+](=O)[O-])n1"
inactive

Kindly provide the recorded test outcome for the following compound: COc1ccc(NC(=O)C2=C(C)Nc3nc(CCCO)nn3C2c2ccc(OC)c(OC)c2)cc1 (stereo unspecified)
inactive
